- Read-out: Vascular cell adhesion molecule 1 (VCAM1), VCAM1 (gene 7412)
- assay overview: BSK_CASM3C_VCAM1: BioMAP Diversity Plus: CASM3C Assay for Vascular cell adhesion molecule 1 (VCAM1) Biomarker Activity (AID 2283055);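 further: VCAM-1 protein level quantified by ELISA on the cells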
- cond: primary human coronary artery smooth muscle cells; actives raise or lower the signal
Calls of active or inactive are those of the source. How the source made its calls: active means hit-call score of the fitted dose curve at least 0.9, where 1 is the maximum; inactive means score below 0.9.
Possible outcomes: 1.0 for active, 0.0 for inactive

>>> assigned_class("CCN(CC)C(=O)SCc1ccc(Cl)cc1")
0.0
>>> assigned_class("CCCN(CCOc1c(Cl)cc(Cl)cc1Cl)C(=O)n1ccnc1")
0.0
>>> assigned_class("COC(=O)c1ccccc1S(=O)(=O)NC(=O)Nc1nc(C)nc(OC)n1")
0.0
>>> assigned_class("CC1(c2ccc(Oc3ccccc3)cc2)OC(=O)N(Nc2ccccc2)C1=O (stereo unspecified)")
1.0
>>> assigned_class("CCCN(CCC)c1c([N+](=O)[O-])cc(C(F)(F)F)cc1[N+](=O)[O-]")
0.0
>>> assigned_class("CC(C)(C)C(O)/C(=C\\c1ccc(Cl)cc1Cl)n1cncn1 (stereo unspecified)")
0.0

---

- assay overview: ATG_DR4_LXR_CIS: Attagene CIS-FACTORIAL HepG2 Assay for human Liver X Receptor (LXR), DR4 submotif (AID 2282929)
- cond: HepG2 Attagene DR4 cis-reporter, mRNA transcription; actives raise or lower the signal
Calls of active or inactive are those of the source. How the source made its calls: active means hit-call score of the fitted dose curve at least 0.9, where 1 is the maximum; inactive means score below 0.9.
Outcome codes: Y for active, N for inactive

>>> assigned_class("COP(=S)(OC)Oc1ccc(SC)c(C)c1")
"Y"
>>> assigned_class("COP(=S)(OC)Oc1ccc([N+](=O)[O-])cc1")
"N"
>>> assigned_class("CCS(=O)(=O)c1cccnc1S(=O)(=O)NC(=O)Nc1nc(OC)cc(OC)n1")
"N"

---

- tgt: chimpanzee Androgen Receptor (AR), AR (gene 747460) (UniProt O97775)
- Sequence (O97775 whole entry, looked up): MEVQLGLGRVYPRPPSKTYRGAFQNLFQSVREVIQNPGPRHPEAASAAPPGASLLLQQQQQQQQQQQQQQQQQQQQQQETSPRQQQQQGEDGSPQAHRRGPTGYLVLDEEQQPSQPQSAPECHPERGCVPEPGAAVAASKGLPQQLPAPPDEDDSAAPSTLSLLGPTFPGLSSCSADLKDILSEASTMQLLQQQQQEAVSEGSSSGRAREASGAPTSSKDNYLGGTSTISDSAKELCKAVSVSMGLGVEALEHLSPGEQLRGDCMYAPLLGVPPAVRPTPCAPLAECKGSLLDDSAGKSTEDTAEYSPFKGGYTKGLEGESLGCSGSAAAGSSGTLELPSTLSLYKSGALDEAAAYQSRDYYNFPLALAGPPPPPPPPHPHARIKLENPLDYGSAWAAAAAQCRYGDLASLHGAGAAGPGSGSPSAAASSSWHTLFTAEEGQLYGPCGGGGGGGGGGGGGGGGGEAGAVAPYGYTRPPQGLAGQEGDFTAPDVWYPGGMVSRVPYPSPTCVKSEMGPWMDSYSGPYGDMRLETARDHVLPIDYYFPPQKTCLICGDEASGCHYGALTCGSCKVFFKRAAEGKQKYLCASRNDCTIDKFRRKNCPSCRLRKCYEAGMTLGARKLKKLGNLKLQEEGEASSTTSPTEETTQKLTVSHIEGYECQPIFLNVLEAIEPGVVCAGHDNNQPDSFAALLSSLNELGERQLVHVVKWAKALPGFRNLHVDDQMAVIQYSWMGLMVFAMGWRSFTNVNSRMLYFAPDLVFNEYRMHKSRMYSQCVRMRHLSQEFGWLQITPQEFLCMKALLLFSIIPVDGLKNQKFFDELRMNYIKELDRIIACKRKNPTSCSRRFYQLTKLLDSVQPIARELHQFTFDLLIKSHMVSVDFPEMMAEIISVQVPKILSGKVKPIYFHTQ
- assay overview: NVS_NR_cAR: NovaScreen (NVS) Nuclear Receptor Binding Assay for chimpanzee Androgen Receptor (AR) (AID 2283346);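 further: radioligand displacement from AR measured by scintillation counting in a cell-free assay; a loss of bound radioligand signal versus DMSO counts as binding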
Records with an inconclusive call do not appear. Calls of active or inactive are those of the source. How the source made its calls: active means hit-call score of the fitted dose curve at least 0.9, where 1 is the maximum; inconclusive means response in the unintended direction; inactive means score below 0.9.
Classes used: yes (1) (active), no (0) (inactive)

>>> assigned_class("COP(=S)(OC)Oc1ccc([N+](=O)[O-])cc1")
"yes (1)"
>>> assigned_class("CC(C)(C)C(O)/C(=C\\c1ccc(Cl)cc1Cl)n1cncn1 (configuration not stated)")
"yes (1)"
>>> assigned_class("CCOCN(C(=O)CCl)c1c(C)cccc1CC")
"yes (1)"
>>> assigned_class("O=S(=O)(O)C(F)(F)C(F)(F)C(F)(F)C(F)(F)C(F)(F)C(F)(F)C(F)(F)C(F)(F)F")
"yes (1)"
>>> assigned_class("CCCN(CCOc1c(Cl)cc(Cl)cc1Cl)C(=O)n1ccnc1")
"yes (1)"
>>> assigned_class("N#Cc1c(Cl)c(Cl)c(Cl)c(C#N)c1Cl")
"no (0)"
>>> assigned_class("CC[C@H](C)[C@H]1O[C@]2(C=C[C@@H]1C)C[C@@H]1C[C@@H](C/C=C(\\C)[C@@H](O[C@H]3C[C@H](OC)[C@@H](O[C@H]4C[C@H](OC)[C@@H](O)[C@H](C)O4)[C@H](C)O3)[C@@H](C)/C=C/C=C3\\CO[C@@H]4[C@H](O)C(C)=C[C@@H](C(=O)O1)[C@]34O)O2 (tested in a mixture with another compound)")
"yes (1)"

Source of measurements: PubChem BioAssay (EPA / NIEHS)
